# Tested on: Pseudomonas aeruginosa
# Test details: Bactericidal activity against Pseudomonas aeruginosa ATCC 27853 after 60 mins in presence of LPS
# Format: functional
Activity calls are given as the source filed them. The rule behind the calls is not given here. Non-standard residues stand in square brackets, D forms with d. Residues, ends and D or L forms follow the SMILES beside them. *: point of attachment. Decanoyl = CCCCCCCCCC(=O)*; Heptanoyl = CCCCCCC(=O)*; Octanoyl = CCCCCCCC(=O)*; Dab = NCC[C@H](N)C(=O)O

Compound	Activity
CCCCCCCC(=O)N[C@@H](CCN)C(=O)N[C@H](C(=O)N[C@@H](CCN)C(=O)N[C@H](Cc1ccccc1)C(=O)N[C@@H](CC(C)C)C(=O)N[C@@H](CCN)C(=O)N[C@@H](C(=O)N[C@@H](CC(C)C)C(=O)N[C@@H](CCN)C(N)=O)C(C)C)[C@@H](C)CC (Octanoyl-[Dab]I[Dab][dF]L[Dab][dV]L[Dab]-NH2)	inactive
CCCCCCCCCC(=O)N[C@@H](CCN)C(=O)N[C@H](C(=O)N[C@@H](CCN)C(=O)N[C@H](Cc1ccccc1)C(=O)N[C@@H](CC(C)C)C(=O)N[C@@H](CCN)C(=O)N[C@@H](C(=O)N[C@@H](CC(C)C)C(=O)N[C@@H](CO)C(N)=O)C(C)C)[C@@H](C)CC (Decanoyl-[Dab]I[Dab][dF]L[Dab][dV]LS-NH2)	inactive
CCCCCCC(=O)N[C@@H](CCN)C(=O)N[C@@H](Cc1ccccc1)C(=O)N[C@@H](CCN)C(=O)N[C@H](Cc1ccccc1)C(=O)N[C@@H](CC(C)C)C(=O)N[C@@H](CCN)C(=O)N[C@H](CC(C)C)C(=O)N[C@@H](Cc1ccccc1)C(=O)N[C@@H](CO)C(N)=O (Heptanoyl-[Dab]F[Dab][dF]L[Dab][dL]FS-NH2)	inactive

Hello, the source for this data is ChEMBL document CHEMBL4052819, in case you need it.
